TARGET_UNDER_TEST: SARS-CoV-2 3CL^pro (Severe acute respiratory syndrome coronavirus 2, UniProt P0DTD1)
METRIC_NAME: pIC50
Answers are plain numbers, as −log10 of the molar value.

compound="C=CS(=O)(=O)N(c1ccc(C(C)(C)C)cc1)C(C(=O)NC1CCCCC1)c1cccnc1 (centres unmarked) [14a]" number=6.30

Could you now consider this next compound?
Quick one: pIC50 of C=CC(=O)N(c1ccc(C(C)(C)C)cc1)C(C(=O)NC1CCCCC1)c1cccnc1 (centres unmarked) ? 4.95

This collection of values is drawn from paper PMC8665847.
